# Tested on: FM3A
# procedure_text: Antiproliferative activity against mouse FM3A cells after 2 days
# Type: functional, cell-based
# experimental_parameters: 48 h
value_type: IC50 (nM)
Answer format: numeric, nM implied, no suffix.

// below: answered compounds
1. COc1ccccc1/C=C/C(=O)c1cc(OC)c(OC)c(OC)c1	7900
2. COc1cc(C(=O)c2ccc(-c3ccccc3)s2)cc(OC)c1OC	460
3. COc1cc(C(=O)c2ccc(-c3ccsc3)s2)cc(OC)c1OC	1800

Continue with the compound presented below.
Please look up its IC50: `COc1cc(C(=O)c2ccc(-c3cccs3)s2)cc(OC)c1OC`
460

----------
Here the recorded pIC50 is given for each entry.
# procedure_text: Inhibition of bovine brain tubulin polymerization for 20 mins
# Design: species or system Bos taurus
Lab note: report pIC50 as minus log10 of the concentration in molar units, number only.

1) COc1cc(C(=O)c2ccc(-c3ccc(F)cc3)s2)cc(OC)c1OC	5.96

Please look up its pIC50: `COc1cc(C(=O)c2ccc(-c3ccccc3)s2)cc(OC)c1OC`
5.82

Please look up its pIC50: `COc1cc(C(=O)c2ccc(-c3ccc(C)cc3)s2)cc(OC)c1OC`
6.10

----------
# Tested on: HeLa
# procedure_text: Antiproliferative activity against human HeLa cells after 2 days
# Format: functional, cell-based
# experimental_parameters: 48 h
Field: label. Allowed values: TRUE (IC50 < 1000 nM) or FALSE (IC50 >= 1000 nM).

1) COc1ccc(/C=C/C(=O)c2cc(OC)c(OC)c(OC)c2)cc1	FALSE

Here's an entry: `COc1cc(C(=O)c2ccc(-c3ccc([N+](=O)[O-])cc3)s2)cc(OC)c1OC` . Is its IC50 below 1000 nM?
FALSE

Here's an entry: `COc1ccc(/C=C/C(=O)c2cc(OC)c(OC)c(OC)c2)cc1OC` . Is its IC50 below 1000 nM?
FALSE

Here's an entry: `COc1cc(C(=O)c2ccc(-c3ccc(C)cc3)s2)cc(OC)c1OC` . Is its IC50 below 1000 nM?
TRUE

Here's an entry: `COc1cc(C(=O)c2ccc(-c3ccccc3F)s2)cc(OC)c1OC` . Is its IC50 below 1000 nM?
FALSE

Here's an entry: `COc1ccccc1-c1ccc(C(=O)c2cc(OC)c(OC)c(OC)c2)s1` . Is its IC50 below 1000 nM?
TRUE

----------
# Tested on: FM3A
# procedure_text: Antiproliferative activity against mouse FM3A cells after 2 days
# Assay type: functional, cell-based
# experimental_parameters: 48 h
value_type: pIC50
Lab note: report pIC50 as minus log10 of the concentration in molar units, number only.

1. COc1ccc(/C=C/C(=O)c2cc(OC)c(OC)c(OC)c2)cc1OC	5.00
2. COc1ccc(-c2ccc(C(=O)c3cc(OC)c(OC)c(OC)c3)s2)cc1OC	6.02
3. COc1ccccc1-c1ccc(C(=O)c2cc(OC)c(OC)c(OC)c2)s1	6.36

Please look up its pIC50: `COc1cc(C(=O)c2ccc(-c3ccccc3Cl)s2)cc(OC)c1OC`
5.77

----------
Here the recorded pIC50 is given for each entry.
# Test system: FM3A
# procedure_text: Antiproliferative activity against mouse FM3A cells after 2 days
# Format: functional, cell-based
# experimental_parameters: 48 h
Lab note: report pIC50 as minus log10 of the concentration in molar units, number only.

// below: answered compounds
1. COc1cc(C(=O)c2ccc(-c3ccccc3C)s2)cc(OC)c1OC	5.68
2. COc1cc(C(=O)c2ccc(-c3ccccc3F)s2)cc(OC)c1OC	6.06
3. COc1cc(C(=O)c2ccc(-c3ccc(F)cc3)s2)cc(OC)c1OC	5.96
4. COc1cccc(/C=C/C(=O)c2cc(OC)c(OC)c(OC)c2)c1	4.96
5. COc1cc(C(=O)c2ccc(-c3ccc(C)cc3)s2)cc(OC)c1OC	6.33

Continue with the compound presented below.
Please look up its pIC50: `COc1cc(C(=O)c2ccc(-c3cccc([N+](=O)[O-])c3)s2)cc(OC)c1OC`
5.62
